# Test system: Hepatitis B virus
# test.summary: Antiviral activity against hepatitis B virus-infected human HepG2.2.15 cells assessed as inhibition of HBV surface antigen secretion
# Format: functional, organism-based
# condition.context: HepG2 2.2.15

{"columns": ["entry.smiles", "IC50"],
 "data": [
  ["C=C(C)[C@H](OC(=O)c1ccccc1)[C@H](C[C@@H](C)[C@]12CC[C@@]3(C)[C@@]1(C[C@H](OC(=O)c1ccccc1)[C@H]1[C@@]4(C)CCC(=O)C(C)(C)[C@@H]4CC[C@@]13C)O2)OC(=O)c1ccccc1", "> 1600 µM"],
  ["C=C(C)[C@H](OC(=O)CC)[C@H](C[C@@H](C)[C@]12CC[C@@]3(C)[C@@]1(C[C@H](OC(=O)CC)[C@H]1[C@@]4(C)CCC(=O)C(C)(C)[C@@H]4CC[C@@]13C)O2)OC(=O)CC", "160 µM"],
  ["CC(=O)O[C@@H](C[C@@H](C)C1=C2C[C@H](OC(C)=O)[C@H]3[C@@]4(C)CCC(=O)C(C)(C)[C@@H]4CC[C@]3(C)[C@@]2(C)CC1)[C@@H](OC(C)=O)C(C)(C)O", "> 2000 µM"],
  ["CCC(=O)O[C@@H](C[C@@H](C)C1=C2C[C@H](OC(=O)CC)[C@H]3[C@@]4(C)CCC(=O)C(C)(C)[C@@H]4CC[C@]3(C)[C@@]2(C)CC1)[C@@H](OC(=O)CC)C(C)(C)O", "> 1400 µM"],
  ["CC(=O)O[C@@H](C[C@@H](C)[C@]12CC[C@@]3(C)[C@@]1(C[C@H](OC(C)=O)[C@H]1[C@@]4(C)CCC(=O)C(C)(C)[C@@H]4CC[C@@]13C)O2)[C@@H](OC(C)=O)C(C)(C)O", "> 2000 µM"],
  ["C=C(C)[C@H](OC(=O)CC)[C@H](C[C@@H](C)C1=C2C[C@H](OC(=O)CC)[C@H]3[C@@]4(C)CCC(=O)C(C)(C)[C@@H]4CC[C@]3(C)[C@@]2(C)CC1)OC(=O)CC", "> 12000 µM"]
]}

----------
# test.summary: Cytotoxicity against human HepG2.2.15 cells
# Type: cell-based, HepG2 2.2.15
result.type: CC50

{"columns": ["entry.smiles", "result.type", "recorded.measurement"],
 "data": [
  ["C[C@H](C[C@H](O)[C@@H](O)C(C)(C)O)[C@]12CC[C@@]3(C)[C@@]1(C[C@H](O)[C@H]1[C@@]4(C)CCC(=O)C(C)(C)[C@@H]4CC[C@@]13C)O2", "CC50", "430 µM"],
  ["C[C@H](C[C@H](OC(=O)/C=C/c1ccccc1)[C@@H](OC(=O)/C=C/c1ccccc1)C(C)(C)O)[C@]12CC[C@@]3(C)[C@@]1(C[C@H](OC(=O)/C=C/c1ccccc1)[C@H]1[C@@]4(C)CCC(=O)C(C)(C)[C@@H]4CC[C@@]13C)O2", "CC50", "> 1300 µM"],
  ["CC(C)C(=O)O[C@@H](C[C@@H](C)[C@]12CC[C@@]3(C)[C@@]1(C[C@H](OC(=O)C(C)C)[C@H]1[C@@]4(C)CCC(=O)C(C)(C)[C@@H]4CC[C@@]13C)O2)[C@@H](OC(=O)C(C)C)C(C)(C)O", "CC50", "> 1900 µM"]
]}

----------
# Test system: Hepatitis B virus
# test.summary: Antiviral activity against hepatitis B virus-infected human HepG2.2.15 cells assessed as inhibition of HBV surface antigen secretion
# Assay type: functional, organism-based
# condition.context: HepG2 2.2.15
Parameter IC50: see the listing below.

{"columns": ["entry.smiles", "op", "IC50 [µM]"],
 "data": [
  ["C=C(C)[C@H](OC(=O)c1ccccc1)[C@H](C[C@@H](C)C1=C2C[C@H](OC(=O)c3ccccc3)[C@H]3[C@@]4(C)CCC(=O)C(C)(C)[C@@H]4CC[C@]3(C)[C@@]2(C)CC1)OC(=O)c1ccccc1", ">", 2300],
  ["C=C(C)[C@H](OC(C)=O)[C@H](C[C@@H](C)C1=C2C[C@H](OC(C)=O)[C@H]3[C@@]4(C)CCC(=O)C(C)(C)[C@@H]4CC[C@]3(C)[C@@]2(C)CC1)OC(C)=O", "=", 28],
  ["C=C(C)[C@H](OC(=O)/C=C/c1ccccc1)[C@H](C[C@@H](C)[C@]12CC[C@@]3(C)[C@@]1(C[C@H](OC(=O)/C=C/c1ccccc1)[C@H]1[C@@]4(C)CCC(=O)C(C)(C)[C@@H]4CC[C@@]13C)O2)OC(=O)/C=C/c1ccccc1", ">", 1600],
  ["Cc1ccc(S(=O)(=O)N/N=C2\\CC[C@@]3(C)[C@@H](CC[C@@]4(C)[C@H]3[C@@H](O)CC3=C([C@H](C)C[C@H](O)[C@@H](O)C(C)(C)O)CC[C@@]34C)C2(C)C)cc1", "=", 29],
  ["C=C(C)[C@H](OC(=O)C(C)C)[C@H](C[C@@H](C)[C@]12CC[C@@]3(C)[C@@]1(C[C@H](OC(=O)C(C)C)[C@H]1[C@@]4(C)CCC(=O)C(C)(C)[C@@H]4CC[C@@]13C)O2)OC(=O)C(C)C", ">", 1300],
  ["C=C(C)[C@H](OC(=O)C(C)C)[C@H](C[C@@H](C)C1=C2C[C@H](OC(=O)C(C)C)[C@H]3[C@@]4(C)CCC(=O)C(C)(C)[C@@H]4CC[C@]3(C)[C@@]2(C)CC1)OC(=O)C(C)C", ">", 1600],
  ["C[C@H](C[C@H](OC(=O)/C=C/c1ccccc1)[C@@H](OC(=O)/C=C/c1ccccc1)C(C)(C)O)[C@]12CC[C@@]3(C)[C@@]1(C[C@H](OC(=O)/C=C/c1ccccc1)[C@H]1[C@@]4(C)CCC(=O)C(C)(C)[C@@H]4CC[C@@]13C)O2", ">", 1300],
  ["C[C@H](C[C@H](O)[C@@H](O)C(C)(C)O)C1=C2C[C@H](O)[C@H]3[C@@]4(C)CCC(=O)C(C)(C)[C@@H]4CC[C@]3(C)[C@@]2(C)CC1", "=", 39],
  ["C=C(C)[C@H](OC(C)=O)[C@H](C[C@@H](C)[C@]12CC[C@@]3(C)[C@@]1(C[C@H](OC(C)=O)[C@H]1[C@@]4(C)CCC(=O)C(C)(C)[C@@H]4CC[C@@]13C)O2)OC(C)=O", "=", 24]
]}
